biological target: Human brain derived TDP-43 aggregates (Homo sapiens); construct: A sample of brain tissue (frontal or temporal cortex) was homogenized; from tissue; host or cells: sarkosyl-insoluble fraction of human FTD brain (frontal or temporal cortex); experiment: Micro-radiobinding competition assay on human FTD sarkosyl-insoluble brain extracts; type: binding; conditions: 2 μM test compound; radioligand [3H]-Compound 52 (75 nM)
Sequence (Q13148 whole entry): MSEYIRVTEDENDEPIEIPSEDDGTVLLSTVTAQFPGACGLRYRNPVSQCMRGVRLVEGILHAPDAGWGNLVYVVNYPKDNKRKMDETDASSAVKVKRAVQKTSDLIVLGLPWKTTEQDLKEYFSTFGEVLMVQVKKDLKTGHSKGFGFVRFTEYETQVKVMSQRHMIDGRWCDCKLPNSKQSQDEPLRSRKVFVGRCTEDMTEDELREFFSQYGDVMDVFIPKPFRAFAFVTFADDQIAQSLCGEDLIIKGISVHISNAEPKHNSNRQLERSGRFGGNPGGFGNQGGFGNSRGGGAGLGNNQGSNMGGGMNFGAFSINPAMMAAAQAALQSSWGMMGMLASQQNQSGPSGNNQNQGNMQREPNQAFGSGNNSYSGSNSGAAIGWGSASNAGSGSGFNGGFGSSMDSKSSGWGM
Metric name: Human brain derived TDP-43 aggregates Mean % competition at 2 μM

Q: What does the data say about its Human brain derived TDP-43 aggregates Mean % competition at 2 μM? Entry: Nc1cc(N2CCc3nc(-c4ccc(N5CCC[C@H](F)C5)nc4)sc3C2=O)ccc1F
A: 81.0ª %

Next:
Q: Consider the molecule shown here: Nc1cccc(N2CCc3nc(-c4ccc(N5CC[C@@H](F)C5)nc4)sc3C2=O)c1F What is its recorded Human brain derived TDP-43 aggregates Mean % competition at 2 μM?
A: 84.1ª %

Q: Note, next up: N#Cc1cc(N2CCc3nc(-c4ccc(N5CCC[C@@H](F)C5)nc4)sc3C2=O)ccc1N
A: 73.9ª %

Q: Moving on to the next molecule: Cn1cc(N2CCc3nc(-c4ccc(N5CC[C@H](F)C5)cc4)sc3C2=O)cn1
A: 79.7ª %

Q: Quick one: N#Cc1ccc(N2CCc3nc(-c4ccc(N5CCC[C@H](F)C5)nc4)sc3C2=O)cc1N
A: 79.7ª %

Q: What about this molecule? Nc1cccc(N2CCc3nc(-c4cnc(N5CC[C@@H](F)C5)cn4)sc3C2=O)c1F
A: 74.0ª %

Q: Next entry: Nc1cccc(N2CCc3nc(-c4ccc(N5CCCC5)nc4)sc3C2=O)c1F
A: 85.7ª %

Q: Now consider N#Cc1ccc(N2CCc3nc(-c4ccc(N5CCCC5)nc4)sc3C2=O)cc1N and answer again.
A: 95.0ª %

* * *

target: Human brain derived TDP-43 aggregates (Homo sapiens); construct: A sample of brain tissue (frontal or temporal cortex) was homogenized; from tissue; host or cells: sarkosyl-insoluble fraction of human FTD brain (frontal or temporal cortex); experiment: Micro-radiobinding competition assay on human FTD sarkosyl-insoluble brain extracts; assay type: binding; conditions: radioligand [3H]-Compound 52 (75 nM); 0.24 nM to 2 μM test compound
pKi: −log10 of the molar value.
Metric name: pKi

Recorded results for 8 compounds are shown here.
Q: Using the record for N#Cc1ccc(N2CCc3nc(-c4ccc(N5CCC[C@@H](F)C5)nc4)sc3C2=O)cc1N , report its pKi.
A: 7.06

Q: And the next one, Nc1ccc(N2CCc3nc(-c4ccc(N5CCCC5)nc4)sc3C2=O)cc1F ?
A: 6.86

Q: Same read-out for N#Cc1ccc(N2CCc3nc(-c4ccc(N5CC[C@@H](F)C5)nc4)sc3C2=O)cc1N ?
A: 7.27

Q: Input N#Cc1cc(N2CCc3nc(-c4ccc(N5CC[C@@H](F)C5)nc4)sc3C2=O)ccc1N
A: 6.79

Q: Can you handle Nc1cc(N2CCc3nc(-c4ccc(N5CC[C@H](F)C5)nc4)sc3C2=O)ccc1F next?
A: 8.00

Q: Same again, this time with Nc1cc(N2CCc3nc(-c4ccc(N5CCCC5)nc4)sc3C2=O)ccc1F
A: 7.14

Q: Here is the next compound: Nc1cc(N2CCc3nc(-c4cnc(N5CC[C@H](F)C5)cn4)sc3C2=O)ccc1F
A: 7.10

Q: Nc1cccc(N2CCc3nc(-c4cnc(N5CC[C@H](F)C5)nc4)sc3C2=O)c1F , same question.
A: 6.82

a = N#Cc1cc(N2CCc3nc(-c4ccc(N5CCCC5)nc4)sc3C2=O)ccc1N
b = N#Cc1cc(N2CCc3nc(-c4ccc(N5CCC[C@@H](F)C5)nc4)sc3C2=O)ccc1N
Q: I'd appreciate it if you could identify which of a and b has the greater pKi. Respond using the label that marks the chosen record.
A: b
(b: 7.56, a: 7.16)
